Measured Ratio accompanies every entry in the list below.
- assayed_system: N-acylethanolamine-hydrolyzing acid amidase (Homo sapiens) (UniProt Q02083)
- Sequence (whole entry): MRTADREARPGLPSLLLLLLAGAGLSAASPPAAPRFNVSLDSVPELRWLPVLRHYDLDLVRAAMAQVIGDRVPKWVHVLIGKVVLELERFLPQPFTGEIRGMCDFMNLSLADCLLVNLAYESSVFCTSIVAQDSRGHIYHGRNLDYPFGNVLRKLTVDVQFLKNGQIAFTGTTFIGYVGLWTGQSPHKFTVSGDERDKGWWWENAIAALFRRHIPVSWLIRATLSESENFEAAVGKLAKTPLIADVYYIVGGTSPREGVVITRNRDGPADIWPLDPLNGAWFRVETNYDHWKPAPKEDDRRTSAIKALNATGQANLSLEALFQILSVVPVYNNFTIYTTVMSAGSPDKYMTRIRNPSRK
- procedure_summary: Irreversible inhibition of activated human NAAA assessed as ratio of Kinact/Ki using fluorogenic PAMCA and N-4-methylcoumarin as substrate
For clarity, give the value followed by its unit.

Consider the worked cases shown below.
N#CN1CC(OCc2ccc(-c3ccccc3)cc2)C1	3.03 ×10⁶ /M/s
COc1cccc(-c2ccc(COC3CN(C#N)C3)cc2)c1	3.05 ×10⁶ /M/s

// moving on: another record for Ratio
Inquiry: For N#CN1CC(COCc2ccc(-c3ccccc3)cc2)C1 , what is its reported Ratio?
Reply text: 3.04 ×10⁶ /M/s
